Listed next: entries and their corresponding pIC50.
- Tested on: human gastric cancer MKN-45 cells
- Assay Remarks: Cell proliferation assay (CCK-8)
- Format: cell-based
- Details: MKN-45, 72 h
pIC50: −log10 of the molar value.

{"Molecule": "COc1cc(/C=C/C(=O)O[C@@H]2/C=C/C(=O)O[C@@H](C)CCC/C=C/[C@@H]3C[C@H](O)C[C@H]32)cc(OC)c1OC [Compound 11b]", "pIC50": "6.00 to 7.00"}

IN: Please supply the value of reported pIC50 for the item C[C@H]1CCC/C=C/[C@@H]2C[C@H](OC(=O)/C=C/c3cnc4ccccc4c3)C[C@H]2[C@H](OC(=O)/C=C/c2cnc3ccccc3c2)/C=C/C(=O)O1 [Compound 17c]
OUT: 5.00 to 6.00

IN: Please supply the value of reported pIC50 for the item C[C@H]1CCC/C=C/[C@@H]2C[C@H](OC(=O)/C=C/c3cccc(Cl)c3)C[C@H]2[C@H](O)/C=C/C(=O)O1 [Compound 5a, 7-O-(3-chlorocinnamic acid)acyl BFA]
OUT: 6.00 to 7.00

IN: Please supply the value of reported pIC50 for the item C[C@H]1CCC/C=C/[C@@H]2C[C@H](OC(=O)/C=C/c3ccc(F)cc3)C[C@H]2[C@H](O)/C=C/C(=O)O1 [Compound 3a, 7-O-(4-fluorocinnamic acid)acyl BFA]
OUT: 6.00 to 7.00

IN: Please supply the value of reported pIC50 for the item Cc1ccc(/C=C/C(=O)O[C@@H]2C[C@H]3[C@H](O)/C=C/C(=O)O[C@@H](C)CCC/C=C/[C@@H]3C2)cc1 [Compound 7a, 7-O-(4-methylcinnamic acid)acyl BFA]
OUT: 6.00 to 7.00

IN: Please supply the value of reported pIC50 for the item C[C@H]1CCC/C=C/[C@@H]2C[C@H](OC(=O)/C=C/c3ccccc3Br)C[C@H]2[C@H](O)/C=C/C(=O)O1 [Compound 4a, 7-O-(2-bromocinnamic acid)acyl BFA]
OUT: 6.00 to 7.00

IN: Please supply the value of reported pIC50 for the item C[C@H]1CCC/C=C/[C@@H]2C[C@H](OC(=O)/C=C/c3cnc4ccccc4c3)C[C@H]2[C@H](O)/C=C/C(=O)O1 [Compound 17a]
OUT: 6.00 to 7.00

IN: Please supply the value of reported pIC50 for the item C[C@H]1CCC/C=C/[C@@H]2C[C@H](O)C[C@H]2[C@H](OC(=O)/C=C/c2ccccc2F)/C=C/C(=O)O1 [Compound 2b, 4-O-(2-fluorocinnamic acid)acyl BFA]
OUT: 6.00 to 7.00

IN: Please supply the value of reported pIC50 for the item C[C@H]1CCC/C=C/[C@@H]2C[C@H](OC(=O)/C=C/c3ccccc3F)C[C@H]2[C@H](O)/C=C/C(=O)O1 [Compound 2a, 7-O-(2-fluorocinnamic acid)acyl BFA]
OUT: 6.00 to 7.00

IN: Please supply the value of reported pIC50 for the item C[C@H]1CCC/C=C/[C@@H]2C[C@H](OC(=O)/C=C/c3ccccn3)C[C@H]2[C@H](O)/C=C/C(=O)O1 [Compound 15a]
OUT: 6.00 to 7.00

IN: Please supply the value of reported pIC50 for the item Cc1ccc(/C=C/C(=O)O[C@@H]2C[C@@H]3[C@H](/C=C/CCC[C@H](C)OC(=O)/C=C/[C@H]3OC(=O)/C=C/c3ccc(C)cc3)C2)cc1 [Compound 7c, 4,7-O-bis(4-methylcinnamic acid)acyl BFA]
OUT: 6.00 to 7.00

* * *

- System: pancreatic cancer PANC-1 cells
- Assay Remarks: Cell proliferation assay (CCK-8)
- Type: cell-based
- Details: Homo sapiens, PANC-1, 72 h
Metric: IC50

Please review the entries below; each comes with its answer.
{"Molecule": "C[C@H]1CCC/C=C/[C@@H]2C[C@H](OC(=O)/C=C/c3cccnc3)C[C@H]2[C@H](OC(=O)/C=C/c2cccnc2)/C=C/C(=O)O1 [Compound 16c]", "Metric": "IC50", "Test Value": "100 to 1000 nM"}
{"Molecule": "C[C@H]1CCC/C=C/[C@@H]2C[C@H](OC(=O)/C=C/c3cccc(F)c3)C[C@H]2[C@H](OC(=O)/C=C/c2cccc(F)c2)/C=C/C(=O)O1", "Metric": "IC50", "Test Value": "1000 to 10000 nM"}
{"Molecule": "C[C@H]1CCC/C=C/[C@@H]2C[C@H](OC(=O)/C=C/c3ccncc3)C[C@H]2[C@H](O)/C=C/C(=O)O1 [Compound 14a]", "Metric": "IC50", "Test Value": "< 100 nM"}
{"Molecule": "C[C@H]1CCC/C=C/[C@@H]2C[C@H](OC(=O)/C=C/c3ccc(C(F)(F)F)cc3)C[C@H]2[C@H](OC(=O)/C=C/c2ccc(C(F)(F)F)cc2)/C=C/C(=O)O1 [Compound 13c]", "Metric": "IC50", "Test Value": "1000 to 10000 nM"}

IN: Specify the recorded IC50 for C[C@H]1CCC/C=C/[C@@H]2C[C@H](O)C[C@H]2[C@H](OC(=O)/C=C/c2ccccn2)/C=C/C(=O)O1 [Compound 15b] , system: pancreatic cancer PANC-1 cells.
OUT: < 100 nM

IN: Specify the recorded IC50 for C[C@H]1CCC/C=C/[C@@H]2C[C@H](O)C[C@H]2[C@H](OC(=O)/C=C/c2ccncc2)/C=C/C(=O)O1 [Compound 14b] , system: pancreatic cancer PANC-1 cells.
OUT: < 100 nM

* * *

- Test system: human liver cancer HepG2 cells
- Assay Remarks: Cell proliferation assay (CCK-8)
- Assay type: cell-based
- Details: HepG2, 72 h
pIC50: −log10 of the molar value.
Metric: pIC50

{"Compound": "Cc1cccc(/C=C/C(=O)O[C@@H]2/C=C/C(=O)O[C@@H](C)CCC/C=C/[C@@H]3C[C@H](O)C[C@H]32)c1 [Compound 6b, 4-O-(3-methylcinnamic acid)acyl BFA]", "pIC50": "6.00 to 7.00"}
{"Compound": "C[C@H]1CCC/C=C/[C@@H]2C[C@H](O)C[C@H]2[C@H](OC(=O)/C=C/c2ccccc2F)/C=C/C(=O)O1 [Compound 2b, 4-O-(2-fluorocinnamic acid)acyl BFA]", "pIC50": "6.00 to 7.00"}

The record that follows has no pIC50 shown yet.
IN: Specify the recorded pIC50 for C[C@H]1CCC/C=C/[C@@H]2C[C@H](OC(=O)/C=C/c3ccc(N(C)C)cc3)C[C@H]2[C@H](OC(=O)/C=C/c2ccc(N(C)C)cc2)/C=C/C(=O)O1 [Compound 10c] , system: human liver cancer HepG2 cells.
OUT: 5.00 to 6.00

* * *

- System: pancreatic cancer PANC-1 cells
- Assay Remarks: Cell proliferation assay (CCK-8)
- Assay type: cell-based
- Details: Homo sapiens, PANC-1, 72 h
Metric: IC50

Please review the entries below; each comes with its answer.
{"Molecule": "Cc1cccc(/C=C/C(=O)O[C@@H]2/C=C/C(=O)O[C@@H](C)CCC/C=C/[C@@H]3C[C@H](O)C[C@H]32)c1", "Test Value": "100 to 1000 nM"}
{"Molecule": "C[C@H]1CCC/C=C/[C@@H]2C[C@H](OC(=O)/C=C/c3ccc(F)cc3)C[C@H]2[C@H](O)/C=C/C(=O)O1", "Test Value": "100 to 1000 nM"}
{"Molecule": "Cc1ccc(/C=C/C(=O)O[C@@H]2/C=C/C(=O)O[C@@H](C)CCC/C=C/[C@@H]3C[C@H](O)C[C@H]32)cc1", "Test Value": "100 to 1000 nM"}
{"Molecule": "COc1cc(/C=C/C(=O)O[C@@H]2C[C@@H]3[C@H](/C=C/CCC[C@H](C)OC(=O)/C=C/[C@H]3OC(=O)/C=C/c3cc(OC)c(OC)c(OC)c3)C2)cc(OC)c1OC [Compound 11c]", "Test Value": "1000 to 10000 nM"}

IN: Please supply the value of reported IC50 for the item `C[C@H]1CCC/C=C/[C@@H]2C[C@H](O)C[C@H]2[C@H](OC(=O)/C=C/c2ccc(F)cc2)/C=C/C(=O)O1`
OUT: 100 to 1000 nM

* * *

- Test system: human breast cancer MCF7 cells
- Assay Remarks: Cell proliferation assay (CCK-8)
- Type: cell-based
- Details: MCF7, 72 h
pIC50: −log10 of the molar value.
Metric: pIC50

{"Molecule": "Cc1ccccc1/C=C/C(=O)O[C@@H]1/C=C/C(=O)O[C@@H](C)CCC/C=C/[C@@H]2C[C@H](O)C[C@H]21 [Compound 8b, 4-O-(2-methylcinnamic acid)acyl BFA]", "pIC50": "6.00 to 7.00"}
{"Molecule": "C[C@H]1CCC/C=C/[C@@H]2C[C@H](OC(=O)/C=C/c3ccc(F)cc3)C[C@H]2[C@H](O)/C=C/C(=O)O1 [Compound 3a, 7-O-(4-fluorocinnamic acid)acyl BFA]", "pIC50": "6.00 to 7.00"}
{"Molecule": "COc1cc(/C=C/C(=O)O[C@@H]2C[C@@H]3[C@H](/C=C/CCC[C@H](C)OC(=O)/C=C/[C@H]3OC(=O)/C=C/c3cc(OC)c(OC)c(OC)c3)C2)cc(OC)c1OC [Compound 11c]", "pIC50": "5.00 to 6.00"}
{"Molecule": "C[C@H]1CCC/C=C/[C@@H]2C[C@H](O)C[C@H]2[C@H](OC(=O)/C=C/c2ccc(N(C)C)cc2)/C=C/C(=O)O1 [Compound 10b]", "pIC50": "6.00 to 7.00"}
{"Molecule": "C[C@H]1CCC/C=C/[C@@H]2C[C@H](OC(=O)/C=C/c3cccnc3)C[C@H]2[C@H](OC(=O)/C=C/c2cccnc2)/C=C/C(=O)O1 [Compound 16c]", "pIC50": "5.00 to 6.00"}
{"Molecule": "C[C@H]1CCC/C=C/[C@@H]2C[C@H](O)C[C@H]2[C@H](OC(=O)/C=C/c2ccccn2)/C=C/C(=O)O1 [Compound 15b]", "pIC50": "6.00 to 7.00"}
{"Molecule": "Cc1ccc(/C=C/C(=O)O[C@@H]2/C=C/C(=O)O[C@@H](C)CCC/C=C/[C@@H]3C[C@H](O)C[C@H]32)cc1 [Compound 7b, 4-O-(4-methylcinnamic acid)acyl BFA]", "pIC50": "6.00 to 7.00"}
{"Molecule": "C[C@H]1CCC/C=C/[C@@H]2C[C@H](O)C[C@H]2[C@H](OC(=O)/C=C/c2ccc(C(F)(F)F)cc2)/C=C/C(=O)O1 [Compound 13b]", "pIC50": "6.00 to 7.00"}
{"Molecule": "C[C@H]1CCC/C=C/[C@@H]2C[C@H](OC(=O)/C=C/c3ccccc3Br)C[C@H]2[C@H](OC(=O)/C=C/c2ccccc2Br)/C=C/C(=O)O1 [Compound 4c, 4,7-O-bis(2-bromocinnamic acid)acyl BFA]", "pIC50": "5.00 to 6.00"}
{"Molecule": "Cc1cccc(/C=C/C(=O)O[C@@H]2C[C@H]3[C@H](O)/C=C/C(=O)O[C@@H](C)CCC/C=C/[C@@H]3C2)c1 [Compound 6a, 7-O-(3-methylcinnamic acid)acyl BFA]", "pIC50": "6.00 to 7.00"}

The record that follows has no pIC50 shown yet.
IN: Please supply the value of reported pIC50 for the item Cc1ccc(/C=C/C(=O)O[C@@H]2C[C@H]3[C@H](O)/C=C/C(=O)O[C@@H](C)CCC/C=C/[C@@H]3C2)cc1 [Compound 7a, 7-O-(4-methylcinnamic acid)acyl BFA]
OUT: 5.00 to 6.00
